Biological target: NRAS Q61K (Homo sapiens, UniProt P01111+P62937, Q61K)
Sequence (P01111 whole entry Q61K): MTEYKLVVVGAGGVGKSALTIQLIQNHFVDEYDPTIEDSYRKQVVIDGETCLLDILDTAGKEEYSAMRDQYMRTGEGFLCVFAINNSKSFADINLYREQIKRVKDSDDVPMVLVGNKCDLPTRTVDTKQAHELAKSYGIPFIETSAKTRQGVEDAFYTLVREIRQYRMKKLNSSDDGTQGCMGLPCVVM
Sequence (P62937 whole entry): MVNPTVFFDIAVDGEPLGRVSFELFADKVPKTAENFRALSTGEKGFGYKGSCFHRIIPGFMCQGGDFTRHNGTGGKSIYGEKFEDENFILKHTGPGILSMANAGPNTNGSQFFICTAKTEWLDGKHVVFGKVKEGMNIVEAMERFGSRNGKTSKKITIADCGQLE
Assay: Disruption of BRAF RBD interaction with Ras (FRET / MOA assay, with Cyclophilin A)
Type: biochemical
Conditions: NRAS Q61K; read-out: NRAS Q61K FRET data IC50
recorded_metric: IC50

Use these answered entries as a reference point.
Sample C=CC(=O)N1CC[C@H](C(=O)N(C)[C@H](C(=O)N[C@H]2Cc3cc(O)cc(c3)-c3ccc4c(c3)c(c(-c3cncnc3)n4CC)CC(C)(C)COC(=O)[C@@H]3CCCN(N3)C2=O)C(C)C)C1 ; IC50 observed: 1 to 10 µM

Sample CCn1c(-c2cccnc2[C@H](C)OC)c2c3cc(ccc31)-c1cc(O)cc(c1)C[C@H](NC(=O)[C@H](C(C)C)N(C)C(=O)[C@H]1[C@@H]3CNC[C@@H]31)C(=O)N1CCC[C@H](N1)C(=O)OCC(C)(C)C2 ; IC50 observed: 1 to 10 µM

Sample CCn1c(-c2cccnc2[C@H](C)OC)c2c3cc(ccc31)-c1csc(n1)[C@@H](O)[C@H](NC(=O)[C@H](C(C)C)N(C)C(=O)N1CC(N(C)C)C1)C(=O)N1CCC[C@H](N1)C(=O)OCC(C)(C)C2 (atropisomer, axis not shown) ; IC50 observed: 0.01 to 0.1 µM

Sample C=CC(=O)N(C)C1CCN(C(=O)N(C)[C@H](C(=O)N[C@H]2Cc3nc(cs3)-c3ccc4c(c3)c(c(-c3cccnc3[C@H](C)OC)n4CC)CC(C)(C)COC(=O)[C@@H]3CCCN(N3)C2=O)C(C)C)C1 (stereo partly drawn) ; IC50 observed: 0.01 to 0.1 µM

Sample CCn1c(-c2cccnc2[C@H](C)OC)c2c3cc(ccc31)-c1csc(n1)C[C@H](NC(=O)[C@H]1CCO1)C(=O)N1CCC[C@H](N1)C(=O)OCC(C)(C)C2 ; IC50 observed: 0.1 to 1 µM

Sample CCn1c(-c2cc(N3CCN(C)CC3)cnc2[C@H](C)OC)c2c3cc(ccc31)-c1csc(n1)C[C@H](NC(=O)[C@H](C(C)C)N(C)C(=O)[C@@H]1OCC[C@@H]1c1ccccc1)C(=O)N1CCC[C@H](N1)C(=O)OCC(C)(C)C2 (atropisomer, axis not shown) ; IC50 observed: 0.1 to 1 µM

Sample CCn1c(-c2cccnc2[C@H](C)OC)c2c3cc(ccc31)N1CCO[C@@](C)(CC(NC(=O)[C@H](C(C)C)N(C)C(=O)C3(F)CCN(C(=O)C#CC(C)(C)N(C)C)CC3)C(=O)N3CCC[C@H](N3)C(=O)OCC(C)(C)C2)C1 (stereo partly drawn) ; IC50 observed: 1 to 10 µM

Sample CCn1c(-c2cccnc2[C@H](C)OC)c2c3cc(ccc31)-c1csc(n1)C[C@H](NC(=O)c1ccccn1)C(=O)N1CCC[C@H](N1)C(=O)OCC(C)(C)C2 ; IC50 observed: 0.1 to 1 µM

Could you now consider this next compound?
Sample CCn1c(-c2cccnc2[C@H](C)OC)c2c3cc(ccc31)-c1csc(n1)C[C@H](NC(=O)[C@H](C(C)C)N(C)C(=O)N1CCC[C@H]1CN(C)C)C(=O)N1CCC[C@H](N1)C(=O)OCC(C)(C)C2 ; IC50 observed: 1 to 10 µM

----------
Target: KRAS Q61H (Homo sapiens, UniProt P01116+P62937, Q61H)
Sequence (P01116 1-169 isoform P01116-2 Q61H limits assumed): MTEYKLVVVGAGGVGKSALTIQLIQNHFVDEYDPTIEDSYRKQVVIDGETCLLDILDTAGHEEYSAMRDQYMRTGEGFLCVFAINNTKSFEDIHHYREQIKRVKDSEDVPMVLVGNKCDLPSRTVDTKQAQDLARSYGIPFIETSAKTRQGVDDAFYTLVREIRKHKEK
Sequence (P62937 whole entry): as the sequence (P62937 whole entry) above
Assay: Disruption of BRAF RBD interaction with Ras (FRET / MOA assay, with Cyclophilin A)
Type: biochemical
Conditions: KRAS Q61H; read-out: KRAS Q61H FRET data IC50
recorded_metric: IC50

Assay KRAS Q61H (Homo sapiens, UniProt P01116+P62937, Q61H), sample CCn1c(-c2cccnc2[C@H](C)OC)c2c3cc(ccc31)-c1csc(n1)C[C@H](NC(=O)[C@H](C(C)C)N(C)C(=O)N1CC(OC(F)F)C1)C(=O)N1CCC[C@H](N1)C(=O)OCC(C)(C)C2 (atropisomer, axis not shown) , IC50 read: 10 to 100 nM

Assay KRAS Q61H (Homo sapiens, UniProt P01116+P62937, Q61H), sample C=CC(=O)N1CC[C@H](C(=O)N(C)[C@H](C(=O)N[C@H]2Cc3cc(O)cc(c3)-c3ccc4c(c3)c(c(-c3cccnc3)n4C3CC3)CC(C)(C)COC(=O)[C@@H]3CCCN(N3)C2=O)C(C)C)C1 , IC50 read: 1000 to 10000 nM

Assay KRAS Q61H (Homo sapiens, UniProt P01116+P62937, Q61H), sample CCn1c(-c2cccnc2[C@H](C)OC)c2c3cc(ccc31)-c1cc(O)cc(c1)C[C@H](NC(=O)C1[C@H]3COC[C@@H]13)C(=O)N1CCC[C@H](N1)C(=O)OCC(C)(C)C2 (stereo partly shown) , IC50 read: 100 to 1000 nM

Next:
Assay KRAS Q61H (Homo sapiens, UniProt P01116+P62937, Q61H), sample CCn1c(-c2cccnc2[C@H](C)OC)c2c3cc(ccc31)-c1csc(n1)C[C@H](NC(=O)[C@H](C(C)C)N(C)C(=O)N1CCN(C(=O)CO)CC1)C(=O)N1CCC[C@H](N1)C(=O)OCC(C)(C)C2 (atropisomer, axis not shown) , IC50 read: 10 to 100 nM
